Hey, just so you know, these numbers are from PubChem BioAssay (NCI).

EXPERIMENT_DESCRIPTION: NCI Yeast Anticancer Drug Screen. Data for the rad50 strain (AID 155)
MEASUREMENT_CONDITIONS: S. cerevisiae rad50 strain growth inhibition; at 50.0 µM; stronger effect = higher value
About 79,000 compounds went through this panel and 15% of them were active in at least one assay; those are over-represented in the sample as a whole.
growth inhibition of 80% or higher: rule met. Under 80%: rule not met.

Here are 5 molecules together with their reported answers.
MOLECULE	ASSIGNED_CATEGORY
O=C1N[C@@H]2C(=C[C@H](O)[C@@H](O)[C@H]2O)c2cc3c(c(O)c21)OCO3	rule not met
CSc1nncc(=O)[nH]1.[Hg]	rule met
O=C1C=CC(=O)N1c1cccc2ccccc12 (tested in a mixture with another compound)	rule not met
COc1ccccc1/C=C(/C)[N+](=O)[O-]	rule met
O=S(=O)(O)c1ccc(Cl)cc1.[Cd]	rule not met

Exam item: Dear colleague, could you confirm whether `CC[CH2][Sn]([CH2]CC)([CH2]CC)[CH2]CCBr` has growth inhibition at or above 80%?
Marked response: rule met

Exam item: And what about the molecule C/C(=N\N=C(N)N)C(CN1CCOCC1)C(c1ccccc1)c1c(O)c2ccccc2oc1=O (stereo not given) ?
Marked response: rule met

Exam item: What about this molecule? `Nc1ccc(N=Nc2ccccc2)cc1`
Marked response: rule not met

Exam item: Same for CC12CCC(C1)C(C)(C)C2OC(=O)c1ccccc1N (stereo not given)
Marked response: rule not met

Exam item: Similarly, COC1OC(COC(C)=O)C(OC(C)=O)C(OC(C)=O)[CH]1[Hg][I] (stereo not given) ?
Marked response: rule met

Exam item: What do you have for `Oc1ccc(Br)cc1C1N(Cc2ccc(N(CCCl)CCCl)cc2Cl)CCCN1Cc1ccc(N(CCCl)CCCl)cc1Cl` ?
Marked response: rule not met

Exam item: Same again, this time with C[C@]12CCc3nonc3C1CC[C@@H]1C2CC[C@]2(C)C(=O)CCC12 (stereo not given in full)
Marked response: rule not met

Exam item: Also `c1ccc(P(CC[As](c2ccccc2)c2ccccc2)CC[As](c2ccccc2)c2ccccc2)cc1` ?
Marked response: rule met

Exam item: Moving on to `O=c1oc2ccccc2c(O)c1C1c2c(c3ccccc3oc2=O)Oc2c1c(=O)oc1ccccc21`
Marked response: rule met

Exam item: Param item: `O=C(O)CCCc1cc(I)c(N(CCCl)CCCl)c(I)c1`
Marked response: rule not met

Exam item: Another molecule to look at: `COC1=C(N2CC2)C(=O)C(OC)=C(N2CC2)C1=O`
Marked response: rule met

Exam item: Quick one: `C[N+](C)=C1C=CC(=C2C=CSC=C2)C=C1`
Marked response: rule not met

Exam item: Moving on to COc1cccc2c1C(=O)c1c(O)c3c(c(O)c1C2=O)C[C@@](O)(/C(C)=N\O)C[C@@H]3OC1CC(N)C(O)C(C)O1 (stereo not given in full)
Marked response: rule met

Exam item: Thanks! And `O=[n+]1c2ccccc2n([O-])c2ccccc21.[Cl][Ni][Cl]` ?
Marked response: rule met

Exam item: Now consider O=[N+]([O-])c1ccc(SC2CCCCCCC2Cl)c([N+](=O)[O-])c1 (stereo not given) .
Marked response: rule not met

Exam item: Then what about the molecule CC(C)(C)C(Br)C(=O)NC(N)=O (stereo not given) ?
Marked response: rule not met

Exam item: // query: `O=C1NC(=S)NC(=O)C1=C/C=C/c1ccccc1`
Marked response: rule not met

Exam item: Can you handle Cc1cccc(C)c1NC(=O)/C(CC(=O)CC(c1ccccc1)c1c(O)c2ccccc2oc1=O)=N/O (stereo not given) next?
Marked response: rule not met

Exam item: Similarly, `CC(C)=[CH][Sb]([Br])([CH]=C(C)C)([CH]=C(C)C)[c]1ccccc1` ?
Marked response: rule not met

Exam item: And the next one, `CN(C)C(=O)Oc1c(Cl)cc(Cl)c(Cl)c1Cl` ?
Marked response: rule not met
